Entry source: PubChem BioAssay (NCI)

procedureSummary: NCI Yeast Anticancer Drug Screen. Data for the cln2 rad14 strain (AID 165)
conditionContext: S. cerevisiae cln2 rad14 strain, at 50.0 µM, hits give high values
This is part of a sample that, as a whole, favours compounds with a hit. Of some 79,000 tested, about 15% had one in any assay.
# binarize growth inhibition: threshold 20% inclusive, high side y, low side n

Examples with answers:
INSERT INTO assay_data (molecule, qualitativelabel) VALUES
  ('CN(C)C(=S)Oc1ccc(S(=O)(=O)F)cc1', 'y'),
  ('CC12CCC3C(CCC4Cc5nc6nnnn6cc5CC43C)C1CCC2O (configuration not stated)', 'y'),
  ('CC(=O)OC1CC[C@@]2(C)C(=CC[C@@H]3[C@@H]2CC[C@]2(C)C(OC(C)=O)[C@H](n4ccnc4)C[C@@H]32)C1 (some centres not stated)', 'y'),
  ('COc1cc(CC(N)Cc2c[nH]c3ccccc23)cc(OC)c1OC (configuration not stated)', 'y');

I'd appreciate it if you could say whether CCCCN(CCCC)CC(=O)c1ccc(Br)cc1 has growth inhibition at least equal to 20%.
n

State whether the measured growth inhibition reaches 20%, counting equality as reaching it, for CC(=O)[O-].Cn1ccnc1CNCc1nccn1C.[Cu+2].[O-][Cl+3]([O-])([O-])[O-]
n

Given the entry CC(C)=N.[C-]#[O+].[C-]#[O+].[C-]#[O+].[C-]#[O+].[C-]#[O+].[W] , answer whether its growth inhibition meets or surpasses 20%.
n

Quick check: does C=CCCOC(=O)CO[N+](=O)[O-] have growth inhibition greater than or equal to 20%?
n

Hi, just wondering whether CCOC(=O)C1C(=O)C(C(=O)OCC)C2c3ccccc3-c3ccccc3C1N2C (configuration not stated) shows growth inhibition of 20% or higher.
n

// inclusive: growth inhibition at least 20%? input: O=NN1CCOCC1
n

Is growth inhibition for Cc1ccc(C2=CCNCC2)cc1 at or above 20%?
n

---

procedureSummary: NCI Yeast Anticancer Drug Screen. Data for the rad50 strain (AID 155)
conditionContext: S. cerevisiae rad50 strain growth inhibition; at 50.0 µM
About 79,000 compounds went through this panel and 15% of them were active in at least one assay; those are over-represented in the sample as a whole. The source made the active and inactive calls. Rule as the data show it: active = growth inhibition above about 70%; inactive = the rest.
Give one outcome, nothing more. List: YES (active), NO (inactive)

See these solved cases before continuing.
INSERT INTO assay_data (compound, qualitativelabel) VALUES
  ('COC1=CCC2=C(CC[C@H]3[C@H]2CCP3C)C1 (some centres undefined)', 'NO'),
  ('CCN1C[C@]2(COC)[C@H](O)C[C@H](OC)[C@]34C1[C@H]([C@H](OC)[C@H]23)[C@]1(OC(C)=O)[C@H]2[C@@H](OC(=O)c3ccccc3)[C@](O)(C[C@H]24)[C@@H](OC)[C@@H]1O', 'NO');

What did the test return for O=P(Oc1ccccc1)(Oc1ccccc1)Oc1ccccc1Cl ?
NO

Recorded test outcome, item Nc1ccc(C(=O)Nc2ccc([As](=O)(O)O)cc2)cc1
NO

Returns: the outcome recorded for [C-]#[O+].[C-]#[O+].[C-]#[O+].[C-]#[O+].[C-]#[O+].[C-]#[O+].[C-]#[O+].[C-]#[O+].[C-]#[O+].[C-]#[O+].[Mn].[Mn] in this assay.
NO

Each compound tested received a call. Report the one for CN(C)C(=O)Oc1c(Cl)cccc1Cl .
NO

Dear colleague, could you share the recorded outcome for CCN(CCCl)c1cc(C(=O)NCCCN(C)CCCNC(=O)c2cc(N(CC)CCCl)c([N+](=O)[O-])cc2[N+](=O)[O-])c([N+](=O)[O-])cc1[N+](=O)[O-] when you have a moment?
NO
